System: SK-OV-3 ovarian
Assay: NCI-60 one-dose screen, 48 h (100 = growth as untreated, 0 = no growth, -100 = all killed)
Details: 10 µM unless noted
About 83,000 compounds went through this panel and 20% of them were active in at least one assay; those are over-represented in the sample as a whole.
Please mark True if the recorded growth is equal to or greater than 90%, and False if it falls below.

Enquiry: hey, is growth for this one >= 90%? O=[N+]([O-])c1cccc(-c2nc3sccn3c2-c2ccnc(NCCCNS(=O)(=O)c3ccc(Cl)cc3)n2)c1
Return: True

Enquiry: hey, is growth for this one >= 90%? CCN1C(=O)N(CC)C2C1NN=c1s/c(=C\c3cccnc3)c(=O)n12 (stereo not given)
Return: False

Enquiry: hey, is growth for this one >= 90%? O=C(c1c[nH]c(=O)c(-c2ccccc2)c1)c1ccccc1O
Return: False

###

Tested on: HCT-15 colon
Test: NCI-60 one-dose screen, 48 h (100 = growth as untreated, 0 = no growth, -100 = all killed)
Settings: 10 µM unless noted
About 83,000 compounds went through this panel and 20% of them were active in at least one assay; those are over-represented in the sample as a whole.
EXPERIMENTAL_ENDPOINT: growth (%)
Write the value in % as a bare number.

>  <COMPOUND>
COc1ccc(C2=Nn3c(nnc3-n3nc(C)cc3C)SC2)cc1

>  <ASSAYED_SYSTEM>
HCT-15 colon

>  <growth, %>
17.1

$$$$

Enquiry: Please supply the value of reported growth for the item O=[N+]([O-])c1cnc(Sc2ccncn2)s1
Return: -16

Enquiry: Please supply the value of reported growth for the item Clc1cc2c(nn1)Nc1ccccc1S2
Return: 101

Enquiry: Please supply the value of reported growth for the item CC12CCCC(CC(=O)c3[nH]c4ccccc4c31)C2 (stereo not given)
Return: 26.6

Enquiry: Please supply the value of reported growth for the item C/C(=C\c1ccc(OCC(=O)O)c(Cl)c1Cl)[N+](=O)[O-]
Return: 97.4

###

# reported growth; entries follow
Test system: SK-OV-3 ovarian
Experiment: NCI-60 one-dose screen, 48 h (100 = growth as untreated, 0 = no growth, -100 = all killed)
Settings: 10 µM unless noted
Compounds without any hit were thinned out: in the full panel of roughly 83,000, 20% have a hit.
Write the value in % as a bare number.

>  <COMPOUND>
COc1cc(C2CC(c3ccc4c(c3)OCO4)=NN2C(C)=O)cc(OC)c1OC (stereo not given)

>  <growth [%]>
10.6

$$$$
>  <COMPOUND>
COC(=O)C(Sc1ccc(Cl)cc1)C1SC(=S)N(Cc2ccccc2)C1=O (stereo not given)

>  <growth [%]>
108

$$$$
>  <COMPOUND>
O=c1cc/c(=N\Nc2ccccc2)c(=O)/c1=N/Nc1ccccc1

>  <growth [%]>
109

$$$$

Enquiry: Report growth under test system SK-OV-3 ovarian for CCN(CC)c1ccc(/C=C2\Oc3ccc(O)c(I)c3C2=O)cc1 .
Return: 79.5

Enquiry: Report growth under test system SK-OV-3 ovarian for COc1ccc(NC(=O)CSc2nc(-c3ccc(OC)c(OC)c3)cc(-c3cc(OC)c(OC)c(OC)c3)n2)cc1 .
Return: 109

###

System: SK-MEL-5 melanoma
Assay: NCI-60 one-dose screen, 48 h (100 = growth as untreated, 0 = no growth, -100 = all killed)
Settings: 10 µM unless noted
Compounds without any hit were thinned out: in the full panel of roughly 83,000, 20% have a hit.
Please mark condition met if the recorded growth is equal to or greater than 90%, and condition not met if it falls below.

Enquiry: hey, is growth for this one >= 90%? NC1=NC(SCc2ccccc2CCl)c2ncn(Cc3ccccc3CCl)c2N1 (configuration not stated)
Return: condition not met

Enquiry: hey, is growth for this one >= 90%? CN1C=CN(Cc2ccc(-c3ccccn3)nc2)[CH-]1.CN1C=CN(Cc2ccc(-c3ccccn3)nc2)[CH-]1.[Au+3]
Return: condition not met

Enquiry: hey, is growth for this one >= 90%? COc1cc([N+](=O)[O-])c2ncccc2c1O
Return: condition not met

Enquiry: hey, is growth for this one >= 90%? N=C(N)c1ccc(-c2ccc(-c3cncc4ccccc34)s2)cc1F
Return: condition not met

###

System: NCI-H23 lung
Assay: NCI-60 one-dose screen, 48 h (100 = growth as untreated, 0 = no growth, -100 = all killed)
Details: 10 µM unless noted
The panel holds about 83,000 compounds, 20% with a hit somewhere; the sample as a whole holds those more often.
# reported growth; entries follow
Write the value in % as a bare number.

The following molecules have reported results that may help.
>  <MOLECULE>
Clc1cc2c(nn1)Nc1ccccc1S2

>  <EXPERIMENTAL_ENDPOINT>
growth

>  <U>
%

>  <MEASURED_RESULT>
94.7

$$$$
>  <MOLECULE>
Cc1ccc(-c2nc(C(Cl)Cl)n3nc(-c4ccccc4)cc3n2)cc1

>  <EXPERIMENTAL_ENDPOINT>
growth

>  <U>
%

>  <MEASURED_RESULT>
47.3

$$$$
>  <MOLECULE>
CCCN=C1NC(=O)/C(=C/c2nc(-c3ccc(OC)cc3)n3ccccc23)S1

>  <EXPERIMENTAL_ENDPOINT>
growth

>  <U>
%

>  <MEASURED_RESULT>
77.9

$$$$

Enquiry: Please supply the value of reported growth for the item CC(C)C(C(=O)NCCN1CCOCC1)N1C(=O)/C(=C/c2ccc(Br)cc2)SC1=S (stereo not given)
Return: 98.4

Enquiry: Please supply the value of reported growth for the item Cn1c(=O)cc(NC(=O)CN2CCN(c3cc4c(cc3F)c(=O)c(C(=O)O)cn4C3CC3)CC2)[nH]c1=O
Return: 99.9

###

Test system: NCI-H522 lung
Experiment: NCI-60 one-dose screen, 48 h (100 = growth as untreated, 0 = no growth, -100 = all killed)
Settings: 10 µM unless noted
Experimental: Growth inhibition of the NCI-H522 human Non-Small Cell Lung tumor cell line is measured as a screen for anti-cancer activity. Cells are grown in 96 well plates and exposed to the test compound for 48 hours. Compounds are tested at a single concentration, which is 10^-5 M for most compounds. The reported endpoint is percent growth (GI% or GIPRCNT), where numbers from 0 - 100% represent growth inhibition, and numbers from -100% - 0 represent cell death. […]
This is part of a sample that, as a whole, favours compounds with a hit. Of some 83,000 tested, about 20% had one in any assay.
Hi! Just check whether growth is below 70%. Below gives satisfied, equal or above gives not satisfied.

The following molecules have reported results that may help.
>  <MOLECULE>
COc1ccc2c(c1)OC1=C(C(=O)OC1)C2c1cc(OC)c2c(c1)OCO2 (stereo not given)

>  <CATEGORY>
satisfied

$$$$
>  <MOLECULE>
C[n+]1c(/C=C/c2c(O)ccc3ccccc23)ccc2ccccc21

>  <CATEGORY>
satisfied

$$$$
>  <MOLECULE>
NC1=NC(SCc2ccccc2CCl)c2ncn(Cc3ccccc3CCl)c2N1 (stereo not given)

>  <CATEGORY>
satisfied

$$$$
>  <MOLECULE>
COc1ccc(Cn2cc3c(c2-c2cc(OC)c(OC)c(OC)c2)CCc2cnoc2-3)cc1

>  <CATEGORY>
satisfied

$$$$
>  <MOLECULE>
O=C(c1ccccc1)c1c(/C=C/c2ccccc2)c2ccccc2[nH]c1=O

>  <CATEGORY>
not satisfied

$$$$

Enquiry: growth under 70%? Item: COc1ccc(-c2cn(-c3cccc(C(=O)/C=C/c4cc(OC)c(OC)c(OC)c4)c3)c(=O)[nH]2)cc1OC
Return: not satisfied

Enquiry: growth under 70%? Item: COc1ccc(C(=O)N2NC(=O)/C(=C/c3cn(-c4ccccc4)nc3-c3ccccc3)N=C2c2ccccc2)cc1
Return: not satisfied

Enquiry: growth under 70%? Item: CCC(C)/C(=C\C#N)NCCCN/C(=C/C#N)C(C)CC (stereo not given)
Return: not satisfied

Enquiry: growth under 70%? Item: CCCCN(CCCC)c1ccc(C(=N)c2ccc(N(CCCC)CCCC)cc2)cc1
Return: satisfied

###

Tested on: HCT-15 colon
Assay: NCI-60 one-dose screen, 48 h (100 = growth as untreated, 0 = no growth, -100 = all killed)
Details: 10 µM unless noted
About 83,000 compounds went through this panel and 20% of them were active in at least one assay; those are over-represented in the sample as a whole.
# reported growth; entries follow
Write the value in % as a bare number.

The following molecules have reported results that may help.
>  <MOLECULE>
C=C(C)[C@@H]1CC[C@]2(C(=O)O)CC[C@]3(C)[C@H](CC[C@@H]4[C@@]5(C)C[C@@H](CC#Cc6ccc(C(F)(F)F)cc6)[C@H](O)C(C)(C)[C@@H]5CC[C@]43C)[C@@H]12

>  <MEASURED_RESULT>
36.2

$$$$
>  <MOLECULE>
COc1cc(NC(N)=NCCC(C)(C)c2ccc(C(F)(F)F)cc2)ncc1C#N

>  <MEASURED_RESULT>
14.6

$$$$
>  <MOLECULE>
O=c1[nH]c2ccc(Br)cc2c2c1C(c1ccc(Cl)cc1)c1c(ncn3nc(-c4ccco4)nc13)O2 (centres undefined)

>  <MEASURED_RESULT>
64.9

$$$$
>  <MOLECULE>
CC(C)C(C(=O)NCCN1CCOCC1)N1C(=O)/C(=C/c2ccc(Br)cc2)SC1=S (centres undefined)

>  <MEASURED_RESULT>
99.9

$$$$
>  <MOLECULE>
C=C[C@@H]1C[C@@H]2Cc3ccccc3N1O2

>  <MEASURED_RESULT>
107

$$$$

Now, please, on to the next molecule.
Enquiry: Please supply the value of reported growth for the item O=C(C1=Cc2cc3ccccc3n2Cc2cnnn21)c1ccccc1
Return: 38.6
